- Tested on: Sprague-Dawley rats
- test protocol: animal or person
- condition details: rats
quantity measured: Approximate therapeutic index

Here are 5 compounds together with their reported answers.
compound	data value
C=CC1(OC(=O)c2c(F)nnn2[C@H](C)c2ccccc2)COC1 [Compound B51]	>12
C=C=CC1(OC(=O)c2c(I)nnn2[C@H](C)c2ccccc2)CCCCC1 [Compound B137]	>9
CCOC(=O)c1c(I)nnn1[C@H](C)c1ccccc1 [Compound B127]	>23
CCOC(=O)c1c(Cl)nnn1[C@H](C)c1ccccc1 [Compound B65]	>13
CC(C)OC(=O)c1cnnn1[C@H](C)c1ccccc1 [Compound B17]	>56

Now examine the next entry.
Query string: Lab note: need Approximate therapeutic index for CCOC(=O)c1cnnn1[C@H](C)c1ccccc1 [Compound B1] on Sprague-Dawley rats, anyone have it?
Result string: >20
